Provide the reported IC50 of each item.
# measured.target: HIV-integrase (Human immunodeficiency virus type 1 group M subtype B, UniProt P12497)
# Construct: Recombinant integrase (0.26 ng) was incubated with the beads
# protocol: HIV-Integrase Inhibition Activity (SPA bead integration assay with P33 labeled target DNA)
# Type: biochemical
# experimental.context: recombinant integrase, class symbols; read-out: in vitro activity

Inquiry: What IC50 value was documented for this compound, CN(CC1CCCO1)C(=O)C(=O)N(C)C12CCC(CC1)Cn1c2nc(C(=O)NCc2ccc(F)cc2)c(O)c1=O (stereo not drawn) [Example 165] ?
Reply text: < 10 nM

Inquiry: I am curious: what IC50 value has been reported for CN(C)C(=O)C(=O)NC12CCC(CC1)Cn1c2nc(C(=O)NCc2cccnc2)c(O)c1=O [Example 364] ?
Reply text: 10 to 100 nM

Inquiry: Which IC50 is listed for COCC(=O)N1CCN(C(=O)C(=O)NC23CCC(CC2)Cn2c3nc(C(=O)NCc3ccc(F)cc3)c(O)c2=O)CC1 [Example 141] ?
Reply text: < 10 nM

Inquiry: Tell me the measured IC50 of COc1cccc(CNC(=O)c2nc3n(c(=O)c2O)CC2CCC3(NC(=O)C(=O)N(C)C)CC2)c1OC [Example 381] , please.
Reply text: < 10 nM

Inquiry: Requested read-out: IC50. Entry: CN(C)C(=O)C(=O)NC12CCC(CC1)Cn1c2nc(C(=O)NCc2ccccc2OC(F)(F)F)c(O)c1=O [Example 386]
Reply text: < 10 nM

Inquiry: Entry CC(=O)N1CCCC[C@H]1C(=O)NC12CCC(CC1)Cn1c2nc(C(=O)NCc2ccc(F)cc2)c(O)c1=O [Example 265] : reported IC50 = ?
Reply text: < 10 nM

Inquiry: If you can, please state the reported IC50 value of O=C(NC12CCC(CC1)Cn1c2nc(C(=O)NCc2ccc(F)cc2)c(O)c1=O)C(=O)N1CCC(F)CC1 [Example 102] .
Reply text: < 10 nM

Inquiry: If you can, please state the reported IC50 value of Cc1nn(C)cc1CN(C)C(=O)C(=O)N(C)C12CCC(CC1)Cn1c2nc(C(=O)NCc2ccc(F)cc2)c(O)c1=O [Example 169] .
Reply text: < 10 nM

Inquiry: Find the recorded IC50 belonging to CN(C)C(=O)C(=O)NC12CCC(CC1)Cn1c2nc(C(=O)NC2CCN(Cc3ccccc3)C2)c(O)c1=O (stereo not drawn) [Example 356] and report it.
Reply text: > 100 nM

Inquiry: Any idea what its IC50 is? The compound is Cc1noc(C)c1S(=O)(=O)NC12CCC(CC1)Cn1c2nc(C(=O)NCc2ccc(F)cc2)c(O)c1=O [Example 392]
Reply text: > 100 nM

Inquiry: Sample CN(C)C(=O)C(=O)NC12CCC(CC1)Cn1c2nc(C(=O)NCC2CC2)c(O)c1=O [Example 352] — what was its IC50?
Reply text: > 100 nM

Inquiry: May I ask what IC50 has been recorded for Cc1cc(CNC(=O)c2nc3n(c(=O)c2O)CC2CCC3(NC(=O)c3cccnc3)CC2)ccc1F [Example 312] ?
Reply text: < 10 nM

Inquiry: Which IC50 is reported for this compound? CN(C)CC(=O)NC12CCC(CC1)n1c2nc(C(=O)NCc2ccc(F)cc2)c(O)c1=O [Example 14]
Reply text: 10 to 100 nM

Inquiry: Quick one: IC50 for Cc1c(CN(C)C(=O)C(=O)NC23CCC(CC2)Cn2c3nc(C(=O)NCc3ccc(F)cc3)c(O)c2=O)cnn1C [Example 95] ?
Reply text: < 10 nM

Inquiry: Entry O=C1C[C@@H](C(=O)NC23CCC(CC2)Cn2c3nc(C(=O)NCc3ccc(F)cc3)c(O)c2=O)N1 [Example 264] : reported IC50 = ?
Reply text: < 10 nM

---

# measured.target: HIV-integrase (Human immunodeficiency virus type 1 group M subtype B)
# Construct: Recombinant integrase (0.26 ng) was incubated with the beads
# protocol: HIV-Integrase Inhibition Activity (SPA bead integration assay with P33 labeled target DNA)
# Format: biochemical
# experimental.context: recombinant integrase, class symbols; read-out: in vitro activity
endpoint.name: IC50

Inquiry: API: value(readout=IC50, system=HIV-integrase (Human immunodeficiency virus type 1 group M subtype B)) for record CC(=O)N[C@@H]1CCN(C(=O)C(=O)NC23CCC(CC2)Cn2c3nc(C(=O)NCc3ccc(F)cc3)c(O)c2=O)C1
Reply text: < 10 nM

Inquiry: For HIV-integrase (Human immunodeficiency virus type 1 group M subtype B), provide IC50 of COc1cnc(Cl)c2[nH]cc(C(=O)C(=O)NC34CCC(CC3)Cn3c4nc(C(=O)NCc4ccc(F)cc4)c(O)c3=O)c12 please.
Reply text: < 10 nM

Inquiry: Param readout= IC50; system= HIV-integrase (Human immunodeficiency virus type 1 group M subtype B); entry= O=C(NCc1ccc(F)cc1)c1nc2n(c(=O)c1O)CC1CC2CN(C(=O)OCc2ccccc2)C1 (centres unmarked) ; returns value.
Reply text: 10 to 100 nM

Inquiry: Identify the measured IC50 of CN(C)C(=O)C(=O)NC12CCC(CC1)Cn1c2nc(C(=O)NCc2ccc(Cl)cc2)c(O)c1=O for HIV-integrase (Human immunodeficiency virus type 1 group M subtype B).
Reply text: < 10 nM

Inquiry: Lookup: IC50 / HIV-integrase (Human immunodeficiency virus type 1 group M subtype B) / CC(=O)Nc1ccc(C(=O)NC23CCC(CC2)Cn2c3nc(C(=O)NCc3ccc(F)cc3)c(O)c2=O)cn1
Reply text: < 10 nM

Inquiry: # query: IC50 | item CN(C)C(=O)C(=O)NC12CCC(CC1)Cn1c2nc(C(=O)NCCc2cccs2)c(O)c1=O | system: HIV-integrase (Human immunodeficiency virus type 1 group M subtype B)
Reply text: 10 to 100 nM

Inquiry: # query: IC50 | item C=C[C@H]1C[C@@]1(NC(C)=O)C(=O)NC12CCC(CC1)Cn1c2nc(C(=O)NCc2ccc(F)c(C)c2)c(O)c1=O | system: HIV-integrase (Human immunodeficiency virus type 1 group M subtype B)
Reply text: < 10 nM

Inquiry: Reported IC50 for HIV-integrase (Human immunodeficiency virus type 1 group M subtype B), given Cn1cnc(C(=O)NC23CCC(CC2)Cn2c3nc(C(=O)NCc3ccc(F)cc3)c(O)c2=O)n1 ?
Reply text: < 10 nM

Inquiry: # returns recorded IC50 (system: HIV-integrase (Human immunodeficiency virus type 1 group M subtype B)) for CN(C)C(=O)C(=O)NC12CCC(CC1)Cn1c2nc(C(=O)NCc2ccccn2)c(O)c1=O
Reply text: 10 to 100 nM

Inquiry: Which IC50 is reported with HIV-integrase (Human immunodeficiency virus type 1 group M subtype B) for this entry: O=C(NC12CCC(CC1)Cn1c2nc(C(=O)NCc2ccc(F)cc2)c(O)c1=O)c1ccc2nccn2c1 ?
Reply text: < 10 nM

Inquiry: So what IC50 did CC(C)OC(=O)N1CCCC1C(=O)NC12CCC(CC1)Cn1c2nc(C(=O)NCc2ccc(F)cc2)c(O)c1=O (centres unmarked) get with HIV-integrase (Human immunodeficiency virus type 1 group M subtype B)?
Reply text: < 10 nM

Inquiry: Record lookup: for HIV-integrase (Human immunodeficiency virus type 1 group M subtype B), what IC50 belongs to O=C(NCc1ccc(F)cc1)c1nc2n(c(=O)c1O)CC1CCC2(NC(=O)C2CCCN2S(=O)(=O)c2ccco2)CC1 (centres unmarked) ?
Reply text: < 10 nM

Inquiry: Please tell me: IC50 of O=C(NCc1ccc(F)cc1)c1nc2n(c(=O)c1O)CC1CNCC2C1 (centres unmarked) , system HIV-integrase (Human immunodeficiency virus type 1 group M subtype B)?
Reply text: 10 to 100 nM

Inquiry: Write down the reported IC50 of CCCS(=O)(=O)N1CCCC1C(=O)NC12CCC(CC1)Cn1c2nc(C(=O)NCc2ccc(F)cc2)c(O)c1=O (centres unmarked) , test system: HIV-integrase (Human immunodeficiency virus type 1 group M subtype B).
Reply text: < 10 nM

Inquiry: Form field: IC50 recorded for CN(C)C(=O)C(=O)NC12CCC(CC1)Cn1c2nc(C(=O)NCc2c[nH]c3ccccc23)c(O)c1=O with HIV-integrase (Human immunodeficiency virus type 1 group M subtype B) (enter value)
Reply text: < 10 nM

Inquiry: Fill in the recorded IC50 for this compound, with HIV-integrase (Human immunodeficiency virus type 1 group M subtype B) as test system: CS(=O)(=O)NC12CCC(CC1)Cn1c2nc(C(=O)NCc2ccc(F)cc2)c(O)c1=O
Reply text: < 10 nM

Inquiry: Param readout = IC50; param system = HIV-integrase (Human immunodeficiency virus type 1 group M subtype B); param query = CN(C)C(=O)C(=O)NC12CCC(CC1)Cn1c2nc(C(=O)NCc2ccccc2C(F)(F)F)c(O)c1=O ; response: value
Reply text: 10 to 100 nM

Inquiry: Find IC50 (HIV-integrase (Human immunodeficiency virus type 1 group M subtype B)) for the entry COCCN(C)C(=O)C(=O)NC12CCC(CC1)Cn1c2nc(C(=O)NCc2ccc(F)c(C)c2)c(O)c1=O
Reply text: < 10 nM

Inquiry: Lab note: need IC50 for CC(=O)N1CC[C@H]1C(=O)NC12CCC(CC1)Cn1c2nc(C(=O)NCc2ccc(F)cc2)c(O)c1=O on HIV-integrase (Human immunodeficiency virus type 1 group M subtype B), anyone have it?
Reply text: < 10 nM

Inquiry: Tell me reported IC50 for Cc1c(CN(C)C(=O)C(=O)N(C)C23CCC(CC2)Cn2c3nc(C(=O)NCc3ccc(F)cc3)c(O)c2=O)cnn1C , tested with HIV-integrase (Human immunodeficiency virus type 1 group M subtype B).
Reply text: < 10 nM

Inquiry: Param readout= IC50; system= HIV-integrase (Human immunodeficiency virus type 1 group M subtype B); entry= CO[C@H]1C[C@@H](C(=O)NC23CCC(CC2)Cn2c3nc(C(=O)NCc3ccc(F)c(C)c3)c(O)c2=O)N(C(=O)c2ncn(C)n2)C1 ; returns value.
Reply text: < 10 nM

Inquiry: # get_value(readout= IC50, system= HIV-integrase (Human immunodeficiency virus type 1 group M subtype B)) for Cc1cc(CNC(=O)c2nc3n(c(=O)c2O)CC2CCC3(NS(=O)(=O)CC3CC3)CC2)ccc1F
Reply text: > 100 nM

Inquiry: Query the reported IC50 for HIV-integrase (Human immunodeficiency virus type 1 group M subtype B); item: CN(C)C(=O)C(=O)NC12CCC(CC1)Cn1c2nc(C(=O)NCCCc2ccc(F)cc2)c(O)c1=O
Reply text: < 10 nM

Inquiry: Query for HIV-integrase (Human immunodeficiency virus type 1 group M subtype B): what IC50 does the record show for O=C(NC12CCC(CC1)Cn1c2nc(C(=O)NCc2ccc(F)cc2)c(O)c1=O)C(=O)N1CCCCC1 ?
Reply text: < 10 nM

Inquiry: # query: IC50 | item CN(C)C(=O)C(=O)NC12CCC(CC1)Cn1c2nc(C(=O)NCCC2CCCN2C)c(O)c1=O (centres unmarked) | system: HIV-integrase (Human immunodeficiency virus type 1 group M subtype B)
Reply text: > 100 nM

Inquiry: API: value(readout=IC50, system=HIV-integrase (Human immunodeficiency virus type 1 group M subtype B)) for record Cc1cc(CNC(=O)c2nc3n(c(=O)c2O)CC[C@@H]2CC[C@@]3(NC(=O)C(=O)N(C)C)C2)ccc1F
Reply text: < 10 nM

Inquiry: Can you look up IC50 on HIV-integrase (Human immunodeficiency virus type 1 group M subtype B) for CN(C)C(=O)C(=O)NC12CCC(CC1)Cn1c2nc(C(=O)NCc2cccc(-n3cncn3)c2)c(O)c1=O ?
Reply text: < 10 nM

Inquiry: Could you share what IC50 was measured for COC(=O)NC12CCC(CC1)Cn1c2nc(C(=O)NCc2ccc(F)cc2)c(O)c1=O , tested on HIV-integrase (Human immunodeficiency virus type 1 group M subtype B)?
Reply text: < 10 nM

Inquiry: Can you look up IC50 on HIV-integrase (Human immunodeficiency virus type 1 group M subtype B) for O=C(NC12CCC(CC1)Cn1c2nc(C(=O)NCc2ccc(F)cc2)c(O)c1=O)C(=O)N1CCN(CCOCCO)CC1 ?
Reply text: < 10 nM
